Tested on: VEGF-A165
experimentalProtocol: ELISA: VEGF-A165 binding to laminin LG domain / laminin peptide
Parameters: species or system human
setupConditions: 10 µg/mL laminin peptide coated (legend; method 1 μg/mL); 1 μg/mL GF; vs BSA-coated wells; n = 4

# polymerSequence, binding to VEGF-A165 (ELISA), peptides
rows = [
    ("PLFLLHKKGKNLSKPKASQNKKGGKSK [LAMA4_1408–1434, chemically synthesized human laminin LAMA4 linker peptide, 27 aa]", "bound"),
    ("KNSFMALYLSKGR [LAMA3_3031–3043, chemically synthesized human laminin LAMA3 LG4 peptide, 13 aa]", "bound"),
]

* * *

System: PDGF-BB
experimentalProtocol: ELISA: PDGF-BB binding to laminin LG domain / laminin peptide
Design: species or system human
setupConditions: 10 µg/mL laminin peptide coated (legend; method 1 μg/mL); 1 μg/mL GF; vs BSA-coated wells; n = 4

# polymerSequence, binding to PDGF-BB (ELISA), peptides
rows = [
    ("RQRSRPGRWHKVSVRWEKNR [LAMA5_3417–3436, chemically synthesized human laminin LAMA5 LG4 peptide, 20 aa]", "bound"),
    ("RLVFALGTDGKKLRIKSKEKCNDGK [LAMA3_3043–3067, chemically synthesized human laminin LAMA3 LG4 HBD peptide, 25 aa]", "bound"),
    ("PLFLLHKKGKNLSKPKASQNKKGGKSK [LAMA4_1408–1434, chemically synthesized human laminin LAMA4 linker peptide, 27 aa]", "bound"),
]

* * *

System: recombinant human syndecan-1, syndecan-2, syndecan-3, and syndecan-4
experimentalProtocol: ELISA: syndecan binding to laminin peptides
setupConditions: 10 µg/mL laminin peptide coated (legend; method 1 μg/mL); 1 μg/mL histidine-tagged syndecan; vs BSA-coated wells; n = 8
propertyMeasured: binding to syndecans 1–4 (ELISA)

# polymerSequence, measuredResult
data = [
    ("ARKASRRSRQPARH [LAMA5_3312–3325, chemically synthesized human laminin LAMA5 linker peptide, 14 aa, subdomain of LAMA5_3300–3330]", "weak binding"),
    ("KNSFMALYLSKGR [LAMA3_3031–3043, chemically synthesized human laminin LAMA3 LG4 peptide, 13 aa]", "weak binding"),
    ("PPFLMLLKGSTRFNKTKTFR [LAMA3_2932–2951, chemically synthesized human laminin LAMA3 LG3–LG4 linker peptide, 20 aa]", "weak binding"),
]

* * *

Tested on: GF
experimentalProtocol: ELISA: GF binding to laminin peptides, stated for the tested GFs together
Set-up: species or system human; key: ++ indicates high affinities; + indicates medium/low affinities
setupConditions: summary table
propertyMeasured: Interaction with GF

Example results:
# polymerSequence, propertyMeasured, measuredResult
rows = [
    ("PPFLMLLKGSTRFNKTKTFR [LAMA3_2932–2951, chemically synthesized human laminin LAMA3 LG3–LG4 linker peptide, 20 aa]", "Interaction with GF", "+"),
    ("RQRSRPGRWHKVSVRWEKNR [LAMA5_3417–3436, chemically synthesized human laminin LAMA5 LG4 peptide, 20 aa]", "Interaction with GF", "++"),
    ("RLVFALGTDGKKLRIKSKEKCNDGK [LAMA3_3043–3067, chemically synthesized human laminin LAMA3 LG4 HBD peptide, 25 aa]", "Interaction with GF", "++"),
    ("KNSFMALYLSKGR [LAMA3_3031–3043, chemically synthesized human laminin LAMA3 LG4 peptide, 13 aa]", "Interaction with GF", "+"),
    ("PLFLLHKKGKNLSKPKASQNKKGGKSK [LAMA4_1408–1434, chemically synthesized human laminin LAMA4 linker peptide, 27 aa]", "Interaction with GF", "++"),
]

**Q:** Look up Interaction with GF for this sequence: TLFLAHGRLVYMFNVGHKKLKIR [LAMA4_1521–1543, chemically synthesized human laminin LAMA4 LG4 peptide, 23 aa]
**A:** +

**Q:** So what does the record say about Interaction with GF for TPGLGPRGLQATARKASRRSRQPARHPACML [LAMA5_3300–3330, chemically synthesized human laminin LAMA5 linker peptide, 31 aa] ?
**A:** +

**Q:** Recorded Interaction with GF for TLPDVGLELEVR [LAMA5_3539–3550, chemically synthesized human laminin LAMA5 LG5 peptide, 12 aa] , please?
**A:** +

* * *

Test system: human lung fibroblasts
experimentalProtocol: Cell adhesion assay, fibroblasts
Type: cell-based
Design: key: ++ indicates high affinities; + indicates medium/low affinities
setupConditions: summary table
propertyMeasured: Cell adhesion Fibroblast

Previously resolved entries follow.
# polymerSequence, measuredResult
records = [
    ("KNSFMALYLSKGR [LAMA3_3031–3043, chemically synthesized human laminin LAMA3 LG4 peptide, 13 aa]", "+"),
    ("PPFLMLLKGSTRFNKTKTFR [LAMA3_2932–2951, chemically synthesized human laminin LAMA3 LG3–LG4 linker peptide, 20 aa]", "+"),
    ("TLFLAHGRLVYMFNVGHKKLKIR [LAMA4_1521–1543, chemically synthesized human laminin LAMA4 LG4 peptide, 23 aa]", "+"),
    ("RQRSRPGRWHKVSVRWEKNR [LAMA5_3417–3436, chemically synthesized human laminin LAMA5 LG4 peptide, 20 aa]", "+"),
]

**Q:** // returns reported Cell adhesion Fibroblast for input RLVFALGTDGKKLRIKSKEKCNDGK [LAMA3_3043–3067, chemically synthesized human laminin LAMA3 LG4 HBD peptide, 25 aa]
**A:** ++

* * *

Tested on: VEGF-A165
experimentalProtocol: ELISA: VEGF-A165 binding to laminin LG domain / laminin peptide
Set-up: species or system human
setupConditions: 10 µg/mL laminin peptide coated (legend; method 1 μg/mL); 1 μg/mL GF; vs BSA-coated wells; n = 4
propertyMeasured: binding to VEGF-A165 (ELISA), peptides

# polymerSequence, measuredResult
records = [
    ("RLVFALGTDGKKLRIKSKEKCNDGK [LAMA3_3043–3067, chemically synthesized human laminin LAMA3 LG4 HBD peptide, 25 aa]", "bound"),
    ("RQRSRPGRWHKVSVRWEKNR [LAMA5_3417–3436, chemically synthesized human laminin LAMA5 LG4 peptide, 20 aa]", "bound"),
]

* * *

Tested on: PlGF-2
experimentalProtocol: ELISA: PlGF-2 binding to laminin LG domain / laminin peptide
Parameters: species or system human
setupConditions: 10 µg/mL laminin peptide coated (legend; method 1 μg/mL); 1 μg/mL GF; vs BSA-coated wells; n = 4
propertyMeasured: binding to PlGF-2 (ELISA), peptides

# polymerSequence, propertyMeasured, measuredResult
data = [
    ("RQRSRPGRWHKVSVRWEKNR [LAMA5_3417–3436, chemically synthesized human laminin LAMA5 LG4 peptide, 20 aa]", "binding to PlGF-2 (ELISA), peptides", "bound"),
    ("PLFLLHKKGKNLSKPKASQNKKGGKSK [LAMA4_1408–1434, chemically synthesized human laminin LAMA4 linker peptide, 27 aa]", "binding to PlGF-2 (ELISA), peptides", "bound"),
    ("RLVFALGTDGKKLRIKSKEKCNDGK [LAMA3_3043–3067, chemically synthesized human laminin LAMA3 LG4 HBD peptide, 25 aa]", "binding to PlGF-2 (ELISA), peptides", "bound"),
]

* * *

System: recombinant human syndecan-1, syndecan-2, syndecan-3, and syndecan-4
experimentalProtocol: ELISA: syndecan binding to laminin peptides
setupConditions: 10 µg/mL laminin peptide coated (legend; method 1 μg/mL); 1 μg/mL histidine-tagged syndecan; vs BSA-coated wells; n = 8
Description: ELISA tests were performed as described above. […] A concentration of 1 μg/mL of BSA served as non-binding protein control. After blocking with 2% BSA PBS-T solution, 1 μg/mL of the recombinant human syndecan-1, syndecan-2, syndecan-3, and syndecan-4 (all syndecan proteins are histidine-tagged; SinoBiological) were added. Bound GF was detected with anti-histidine tag antibody (BioLegend, Catalog No. 562504, 1:1000 dilution).

# polymerSequence, binding to syndecans 1–4 (ELISA)
records = [
    ("TPGLGPRGLQATARKASRRSRQPARHPACML [LAMA5_3300–3330, chemically synthesized human laminin LAMA5 linker peptide, 31 aa]", "significant binding"),
    ("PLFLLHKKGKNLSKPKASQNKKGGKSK [LAMA4_1408–1434, chemically synthesized human laminin LAMA4 linker peptide, 27 aa]", "significant binding"),
]
